Here's a batch of molecules along with measured pKi for Acetylcholine-binding protein (Lymnaea stagnalis, UniProt P58154).
pKi: −log10 of the molar value. Positions of bridges follow the written chain, without caps; N, C: chain ends. Residues, ends and D or L forms follow the SMILES beside them.

| molecule | pKi |
| --- | --- |
| CC(C)C[C@@H]1NC(=O)[C@H](CO)NC(=O)[C@@H]2CSSC[C@@H](C(=O)O)NC(=O)[C@H](Cc3ccc(O)cc3)NC(=O)[C@H](CC(=O)O)NC(=O)[C@@H]3CCCN3C(=O)[C@H](CC(N)=O)NC(=O)[C@H](CC(N)=O)NC(=O)[C@H](C)NC(=O)[C@H](C)NC(=O)[C@H](CSSC[C@H](NC(=O)CN)C(=O)N2)NC(=O)[C@@H]2CCCN2C(=O)[C@@H]2CCCN2C1=O (H-GCCSLPPCAANNPDYC-OH; disulfide 2-8, 3-16) | 6.91 |
| CC(C)C[C@@H]1NC(=O)[C@H](C)NC(=O)[C@@H]2CSSC[C@H](NC(=O)CN)C(=O)N[C@@H](CSSC[C@@H](C(=O)O)NC(=O)[C@H](CC(N)=O)NC1=O)C(=O)N[C@@H](CO)C(=O)N[C@@H](CC(C)C)C(=O)N1CCC[C@H]1C(=O)N1CCC[C@H]1C(=O)N2 (H-GCCSLPPCALNC-OH; disulfide 2-8, 3-12) | 5.10 |
| CC(C)C[C@@H]1NC(=O)[C@H](C)NC(=O)[C@@H]2CSSC[C@H](NC(=O)CN)C(=O)N[C@@H](CSSC[C@@H](C(=O)O)NC(=O)[C@H](CC(=O)O)NC(=O)[C@@H]3CCCN3C(=O)[C@H](CC(N)=O)NC(=O)[C@H](CC(N)=O)NC1=O)C(=O)N[C@@H](CO)C(=O)N[C@@H](CC(C)C)C(=O)N1CCC[C@H]1C(=O)N1CCC[C@H]1C(=O)N2 (H-GCCSLPPCALNNPDC-OH; disulfide 2-8, 3-15) | 5.51 |
| CC(C)C[C@@H]1NC(=O)[C@H](C)NC(=O)[C@@H]2CSSC[C@H](NC(=O)CN)C(=O)N[C@@H](CSSC[C@@H](C(=O)O)NC(=O)[C@H](CC(N)=O)NC(=O)[C@H](CC(N)=O)NC1=O)C(=O)N[C@@H](CO)C(=O)N[C@@H](CC(C)C)C(=O)N1CCC[C@H]1C(=O)N1CCC[C@H]1C(=O)N2 (H-GCCSLPPCALNNC-OH; disulfide 2-8, 3-13) | 5.35 |

###

procedure-text: Stability assessed as native globular conformation level in presence of reduced glutathione at 500 uM at 24 hrs
Format: physicochemical
condition-notes: solution with 500 uM reduced glutathione; read-out: Stability
Positions of bridges follow the written chain, without caps; N, C: chain ends. Residues, ends and D or L forms follow the SMILES beside them.

| molecule | uom | remaining at 24 h |
| --- | --- | --- |
| CC(C)C[C@@H]1NC(=O)[C@H](C)NC(=O)[C@@H]2CSSC[C@H](NC(=O)CN)C(=O)N[C@@H](CSSC[C@@H](C(=O)O)NC(=O)[C@H](CC(N)=O)NC1=O)C(=O)N[C@@H](CO)C(=O)N[C@@H](CC(C)C)C(=O)N1CCC[C@H]1C(=O)N[C@@H](CCCNC(=N)N)C(=O)N2 (H-GCCSLPRCALNC-OH; disulfide 2-8, 3-12) | % | 40 |
